# Test system: MDA-N
# Assay explanation: NCI tumour cell line growth inhibition, 48 h
The source made the active and inactive calls. Rule as the data show it: active = GI50 up to about 1.1 µM and inactive = higher.
Below, each entry is listed alongside its reported GI50.
Endpoint name: GI50

Nc1ncc(Sc2ccccc2C(=O)O)s1 = > 100 µM (inactive)
Cc1nnc2n1-c1ccccc1C(=S)N1CSCC21 (stereo not given) = > 100 µM (inactive)
COc1ccc(-c2c3c(nc4nc(SCCc5ccccc5)nc(N)c24)CCCC3)cc1OC = > 100 µM (inactive)
C[C@@]12[C@H]3CC[C@@H]1[C@H](O)C(=O)N2CC3 = > 100 µM (inactive)
N#CCCN(CCC#N)c1ccc(/C=C2\N=C(c3ccccc3)N(NC(=O)c3ccncc3)C2=O)cc1 = > 100 µM (inactive)
COc1ccc(/N=C(\C)c2ccncc2)cc1 = > 100 µM (inactive)
CC(C)(C)Nc1noc(=O)n1C(C)(C)C = > 100 µM (inactive)
O=C1CC=C2C3CC4N(CCC45c4ccccc4N1C25)C/C3=C\CO (stereo not given) = > 100 µM (inactive)
COC(=O)C1=C(\c2ccccc2)c2ccccc2C(=O)N(C2CCCCC2)/C=C\1 = 29.5 µM (inactive)
CN(C)CCOc1ccc2[nH]c(C(=O)N3CC(CCl)c4c3cc(NC(=O)OCc3ccc([N+](=O)[O-])cc3)c3ccccc43)cc2c1 (stereo not given) = 1.6 µM (inactive)
